System: SK-MEL-5 melanoma
Test: NCI-60 one-dose screen, 48 h (100 = growth as untreated, 0 = no growth, -100 = all killed)
Details: 10 µM unless noted
Method: Growth inhibition of the SK-MEL-5 human tumor cell line is measured as a screen for anti-cancer activity. Cells are grown in 96 well plates and exposed to the test compound for 48 hours. Compounds are tested at a single concentration, which is 10^-5 M for most compounds. The reported endpoint is percent growth (GI% or GIPRCNT), where numbers from 0 - 100% represent growth inhibition, and numbers from -100% - 0 represent cell death. For example, a value of 40 represents 60% growth inhibition. […]
Compounds without any hit were thinned out: in the full panel of roughly 83,000, 20% have a hit.

cpd_smiles | experimental_system | growth [%]
COc1ccc(NC(=O)c2ccc(Cl)cc2Cl)cc1 | SK-MEL-5 melanoma | 92.3
Cc1nc2c(c(-c3ccccc3)n1)Cc1c(ccc3ccccc13)O2 | SK-MEL-5 melanoma | 70.8
Cc1ccc2nc(/C=C/c3ccc(N(C)C)cc3)cc(C)c2c1 | SK-MEL-5 melanoma | 33.3
CCOC(=O)c1c(NC(=S)Nc2ccc([N+](=O)[O-])cc2)sc2c1CCCCC2 | SK-MEL-5 melanoma | 42.6
COc1ccc(/C=C/C(=O)c2ccc(-n3cc(CN4CCN(c5cc6c(cc5F)c(=O)c(C(=O)O)cn6C5CC5)CC4)nn3)cc2)cc1 | SK-MEL-5 melanoma | 69

* * *

system: T-47D breast; test: NCI-60 one-dose screen, 48 h (100 = growth as untreated, 0 = no growth, -100 = all killed); details: 10 µM unless noted
Compounds without any hit were thinned out: in the full panel of roughly 83,000, 20% have a hit.
Entries get a class label from measured growth. See ranges: low = under 20%, intermediate = from 20% up to 80%, high = 80% and over

compound | assigned_category
O=C1NCCS(=O)(=O)/C1=C\C=C\c1cccc(C(F)(F)F)c1 | intermediate
COc1ccc(C(=O)/C=C/c2ccc(C)cc2)cc1S(N)(=O)=O | high
C=C(C)[C@@H]1CC[C@]2(COC(=O)c3cccnc3)CC[C@]3(C)[C@H](CC[C@@H]4[C@@]5(C)CCCN(C(=O)c6cccnc6)C(C)(C)[C@@H]5CC[C@]43C)[C@@H]12 | intermediate
FC(F)(F)c1cccc(-c2nnn(Cc3cc(-c4cccc(Cl)c4)no3)n2)c1 | high
Cc1cc(C(=O)Nc2cc(Nc3ncccc3-c3ncnc4nc[nH]c34)ccc2F)cc(C(C)(C)C#N)c1 | intermediate
Nc1nc(Nc2ccc([N+](=O)[O-])cc2O)nc(C(Cl)(Cl)Cl)n1 | intermediate
O=C(Nc1cccc(Cn2c(=O)[nH]c3ccc(Oc4ncccn4)cc3c2=O)c1)c1cccc(Cl)c1 | intermediate
O=C1N/C(=N/N=C(c2ccccc2)c2ccccc2)S/C1=C\c1ccc(Br)cc1 | high
CN1CCN(CCCNC(=O)c2c3c(n4ccccc24)C(=O)c2ncccc2C3=O)CC1 | low
Cc1nc2cccc(NCc3ccc(C(=O)NO)cc3)c2c(=O)n1-c1ccccc1 | low
O=C1c2ccccc2-c2c1c1ccncc1c(=O)n2CCCn1ccnc1 | intermediate
Cc1ccccc1NC(=O)Cn1cc(CN2CCN(c3ccnc4cc(Cl)ccc34)CC2)nn1 | high
CNc1nc2ncc(-c3c(C)noc3C)cc2n1Cc1ccccc1 | intermediate
COC(=O)c1c(C)nc(C)c2c1C(=O)C(Br)=C(NCCCCO)C2=O | intermediate
CCCCCCCCOC(=O)c1c(C)[nH]c(/C=C2\N=C(c3ccc[nH]3)C=C2OC)c1C | low
Cc1ccc(C2=Nc3c(N)nc(N)nc3NC(c3cccc(Nc4ccnc5cc(C(F)(F)F)ccc45)c3)C2)cc1 (centres undefined) | intermediate
CN1CCN(Cc2ccc(NC(=O)c3cncc(C#Cc4cnc(N)c5ccc(C#N)cc45)c3)cc2C(F)(F)F)CC1 | low
COc1ccc(-c2nc3cc(C(=O)NC4CCCCC4)ccc3n2C2CCCCC2)cc1 | high
